- TARGET UNDER TEST: T1, human TNFR2 (Novoprotein, Cat #C830) (human, UniProt P20333 23-257, limits assumed)
- T1 construct: construct not described; also called human TNFR2 protein
- T1 sequence (looked up): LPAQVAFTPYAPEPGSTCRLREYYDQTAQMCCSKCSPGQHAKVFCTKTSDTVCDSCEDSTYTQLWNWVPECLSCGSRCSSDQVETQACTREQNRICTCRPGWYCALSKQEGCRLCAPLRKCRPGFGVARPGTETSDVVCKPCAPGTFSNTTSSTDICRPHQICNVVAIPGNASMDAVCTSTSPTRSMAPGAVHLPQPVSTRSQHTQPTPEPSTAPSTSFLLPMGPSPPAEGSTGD
- PROTOCOL SUMMARY: competition ELISA, competitor human TNFα-Biotin; area under the OD curve
Reported AUC by item:
Response field accepts a number only; no unit should be typed.

Field AUC (entry 219-Hu3 (antibody, V domains shown, also called VH5 + VL5) VH: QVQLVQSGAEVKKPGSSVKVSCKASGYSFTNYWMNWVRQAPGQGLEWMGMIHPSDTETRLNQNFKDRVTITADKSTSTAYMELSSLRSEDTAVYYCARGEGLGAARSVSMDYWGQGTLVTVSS VL: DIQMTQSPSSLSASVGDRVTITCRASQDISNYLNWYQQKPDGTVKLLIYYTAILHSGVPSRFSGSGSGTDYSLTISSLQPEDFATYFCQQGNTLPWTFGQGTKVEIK ) reads 8.16

Record 219-Hu1 (antibody, V domains shown, also called VH3 + VL5) VH: QVQLVQSGAEVKKPGASVKVSCKASGYSFTNYWMNWVRQAPGQRLEWMGMIHPSDTETRLNQNFKDRVTITRDTSASTAYMELSSLRSEDTAVYYCARGEGLGAARSVSMDYWGQGTLVTVSS VL: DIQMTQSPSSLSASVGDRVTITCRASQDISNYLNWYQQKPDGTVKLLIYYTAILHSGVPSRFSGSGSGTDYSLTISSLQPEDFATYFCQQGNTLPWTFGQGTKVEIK , field AUC: 7.92

Every entry's value here was drawn from patent US20240109974A1.
